ASSAYED TARGET: D-amino acid oxidase (DAAO; EC 1.4.3.3) (Sus scrofa, UniProt P00371)
Construct: purchased Sigma
Sequence (P00371 whole entry): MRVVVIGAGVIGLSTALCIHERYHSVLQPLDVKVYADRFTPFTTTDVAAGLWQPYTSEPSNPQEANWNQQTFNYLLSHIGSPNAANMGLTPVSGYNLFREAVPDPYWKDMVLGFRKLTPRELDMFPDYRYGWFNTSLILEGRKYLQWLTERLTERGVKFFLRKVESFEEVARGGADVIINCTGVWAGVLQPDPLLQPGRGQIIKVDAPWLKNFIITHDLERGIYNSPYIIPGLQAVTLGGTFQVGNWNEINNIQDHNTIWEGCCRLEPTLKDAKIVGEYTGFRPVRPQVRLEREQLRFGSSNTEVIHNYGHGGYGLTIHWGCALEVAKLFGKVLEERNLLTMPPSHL
ASSAY REMARKS: In vitro inhibition of DAAO using the peroxide method
Type: biochemical
COND: DAAO 2.6 μg/ml, D-Alanine 7.5 mM, 60 minutes at room temperature, absorbance at 492 nm; read-out: H2O2 method pIC50 (converted)
From the text: D-amino acid oxidase (DAAO; EC 1.4.3.3) catalyzes the oxidation of D-stereo isomers of amino acids. Two in vitro methods were developed to measure the catalytic activity of DAAO: • 1. The peroxide method: measures the amount of peroxide produced, using an auxiliary enzyme horse radish peroxidase • 2. The keto acid method: measures the ax keto acid formed The general reaction to determine the amount of peroxide produced by catalytic action of DAAO can be described as: [drawing 36] […]
Rule: IC50 below 600 nM gives fulfilled. Equal to or above 600 nM gives not fulfilled.

- MOLECULE: "Cc1onc(-c2c(Cl)cccc2Cl)c1NC(=O)n1oc2ccc(Cl)cc2c1=O"
  ANSWER LABEL: "not fulfilled"
- MOLECULE: "CNC(=O)n1oc2ccc(Cl)cc2c1=O"
  ANSWER LABEL: "not fulfilled"
- MOLECULE: "CC(C)NC(=O)n1oc2ccc(Cl)cc2c1=O"
  ANSWER LABEL: "not fulfilled"
- MOLECULE: "Cc1ccc2onc(OC(=O)c3cc(C)on3)c2c1"
  ANSWER LABEL: "not fulfilled"
- MOLECULE: "CCCNC(=O)n1oc2ccc(Cl)cc2c1=O"
  ANSWER LABEL: "not fulfilled"
- MOLECULE: "Cc1ccc2on(C(=O)NC(C)(C)C)c(=O)c2c1"
  ANSWER LABEL: "not fulfilled"
- MOLECULE: "Cc1ccc2on(C(=O)NC(C)C)c(=O)c2c1"
  ANSWER LABEL: "not fulfilled"
- MOLECULE: "Cc1onc(-c2c(Cl)cccc2Cl)c1C(=O)Oc1noc2ccc(Cl)cc12"
  ANSWER LABEL: "not fulfilled"
- MOLECULE: "CC(C)(C)NC(=O)n1oc2cc(Cl)ccc2c1=O"
  ANSWER LABEL: "fulfilled"
- MOLECULE: "Cc1cc(C(=O)Oc2noc3cc(Cl)ccc23)no1"
  ANSWER LABEL: "fulfilled"

* * *

// reported IC50 for each item listed
ASSAYED TARGET: D-amino acid oxidase (DAAO; EC 1.4.3.3) (Sus scrofa, UniProt P00371)
Construct: purchased Sigma
ASSAY REMARKS: In vitro inhibition of DAAO using the keto acid method
Format: biochemical
COND: DAAO 20 μg/ml, D-Alanine 15 mM, 10 min at room temperature, pH 8.3, absorbance at 450 nm; read-out: keto acid method pIC50 (converted)
QUANTITY MEASURED: IC50 (nM)

- MOLECULE: "Cc1ccc2on(C(=O)NC(C)C)c(=O)c2c1 [Compound 28]"
  READOUT UNITS: "nM"
  ENDPOINT RESULT: 2000
- MOLECULE: "Cc1cc(C(=O)Oc2noc3cc(Cl)ccc23)no1 [Compound 18]"
  READOUT UNITS: "nM"
  ENDPOINT RESULT: 126
- MOLECULE: "Cc1ccc2on(C(=O)NC(C)(C)C)c(=O)c2c1 [Compound 26]"
  READOUT UNITS: "nM"
  ENDPOINT RESULT: 2000
- MOLECULE: "CCCNC(=O)n1oc2ccc(Cl)cc2c1=O [Compound 25]"
  READOUT UNITS: "nM"
  ENDPOINT RESULT: 794
- MOLECULE: "Cc1onc(-c2c(Cl)cccc2Cl)c1C(=O)Oc1noc2ccc(Cl)cc12 [Compound 17]"
  READOUT UNITS: "nM"
  ENDPOINT RESULT: 1000
- MOLECULE: "CC(C)(C)NC(=O)n1oc2cc(Cl)ccc2c1=O [Compound 27]"
  READOUT UNITS: "nM"
  ENDPOINT RESULT: 200
- MOLECULE: "Cc1onc(-c2c(Cl)cccc2Cl)c1NC(=O)n1oc2ccc(Cl)cc2c1=O [Compound 21]"
  READOUT UNITS: "nM"
  ENDPOINT RESULT: 1000
- MOLECULE: "CNC(=O)n1oc2ccc(Cl)cc2c1=O [Compound 22]"
  READOUT UNITS: "nM"
  ENDPOINT RESULT: 794
- MOLECULE: "CC(C)NC(=O)n1oc2ccccc2c1=O [Compound 29]"
  READOUT UNITS: "nM"
  ENDPOINT RESULT: 3980
- MOLECULE: "Cc1ccc2onc(OC(=O)c3cc(C)on3)c2c1 [Compound 19]"
  READOUT UNITS: "nM"
  ENDPOINT RESULT: 5010
- MOLECULE: "CC(C)NC(=O)n1oc2ccc(Cl)cc2c1=O [Compound 23]"
  READOUT UNITS: "nM"
  ENDPOINT RESULT: 1000

* * *

QUANTITY MEASURED: melting point (°C)

- MOLECULE: "COc1ccc2c(O)noc2c1"
  QUANTITY MEASURED: "melting point"
  READOUT UNITS: "°C"
  ENDPOINT RESULT: 208
- MOLECULE: "COc1ccc2c(=O)n(C(=O)NC(C)C)oc2c1"
  QUANTITY MEASURED: "melting point"
  READOUT UNITS: "°C"
  ENDPOINT RESULT: 121
